Source: PubChem BioAssay (NCI)

system: KM12 colon; assay: NCI-60 one-dose screen, 48 h; conditions: 10 µM unless noted
The panel holds about 83,000 compounds, 20% with a hit somewhere; the sample as a whole holds those more often. Calls of active or inactive are those of the source. The calls were made as follows: active = growth percent below 10; inactive = the rest.
# output must be one of 1.0 (active), 0.0 (inactive)

Here are 3 molecules together with their reported answers.
- Molecule: "CCN1CCN(S(=O)(=O)c2oc(-c3ccc(Cl)cc3)nc2C#N)CC1"
  Qualitative Label: 0.0
- Molecule: "O=C(N/N=C/c1ccc(Br)s1)c1[nH]c2ccc(Br)cc2c1-c1ccccc1"
  Qualitative Label: 1.0
- Molecule: "CS(=O)(=O)c1ccc(-n2cc(/C=C/C(=O)c3ccc(NC(=O)CO[N+](=O)[O-])cc3)c(-c3ccc(Cl)cc3)n2)cc1"
  Qualitative Label: 0.0

For this molecule, state the assay outcome: C[C@@H](Nc1c(C#N)cnc2ccc(-c3cnc(N)nc3)cc12)c1ccccc1
0.0

Hey, what did the test say about CCN1C(=S)N(c2ccccc2)C2NC(=O)N(/N=C/C=C/c3ccccc3OC)C21 (stereo not given) ?
0.0

Called result for O=C(CN1CCOCC1)NNc1ncnc2ccccc12
0.0

Record lookup: outcome of this test for O=C(CSc1nnc(-c2ccc3nc(-c4ccc(Cl)cc4)[nH]c3c2)o1)Nc1ccc(C(=O)/C=C/c2ccc(Cl)cc2)cc1 ?
0.0

Which outcome did this test record for the molecule COc1cc(-c2nc3ccc(-c4nnc(SCC(=O)Nc5ccc(C(=O)/C=C/c6ccc(Cl)cc6)cc5)o4)cc3[nH]2)cc(OC)c1OC ?
0.0
